Source listed as ChEMBL document CHEMBL3272040.

Tested on: Staphylococcus aureus
run_description: Antimicrobial activity against Staphylococcus aureus MB-2865
Format: functional
test_readout: MIC

What MIC value was documented for this compound, O=C(Cc1cccs1)N[C@@H]1C(=O)N2C(C(=O)O)=C(/C=N/O)CS[C@H]12 ? < 0.39 µg/mL

// query MIC value for entry O=C(Cc1cccs1)N[C@@H]1C(=O)N2C(C(=O)O)=C(c3cc(-c4ccccc4)on3)CS[C@H]12 < 0.39 µg/mL

Data request, read-out MIC, for Cc1ccc(S(=O)(=O)N(C)/N=C/C2=C(C(=O)O)N3C(=O)[C@@H](NC(=O)Cc4cccs4)[C@H]3SC2)cc1 < 0.39 µg/mL
